Hello, the source for this data is paper PMC9144329, in case you need it.

Measured Target: pancreatic lipase type II (PL) from porcine pancreas (Sus scrofa)
Construct: pancreatic lipase type II (PL) from porcine pancreas; purchased Sigma-Aldrich L-SLBD2433V; host or cells: porcine pancreas
Sequence (P00591 1-450): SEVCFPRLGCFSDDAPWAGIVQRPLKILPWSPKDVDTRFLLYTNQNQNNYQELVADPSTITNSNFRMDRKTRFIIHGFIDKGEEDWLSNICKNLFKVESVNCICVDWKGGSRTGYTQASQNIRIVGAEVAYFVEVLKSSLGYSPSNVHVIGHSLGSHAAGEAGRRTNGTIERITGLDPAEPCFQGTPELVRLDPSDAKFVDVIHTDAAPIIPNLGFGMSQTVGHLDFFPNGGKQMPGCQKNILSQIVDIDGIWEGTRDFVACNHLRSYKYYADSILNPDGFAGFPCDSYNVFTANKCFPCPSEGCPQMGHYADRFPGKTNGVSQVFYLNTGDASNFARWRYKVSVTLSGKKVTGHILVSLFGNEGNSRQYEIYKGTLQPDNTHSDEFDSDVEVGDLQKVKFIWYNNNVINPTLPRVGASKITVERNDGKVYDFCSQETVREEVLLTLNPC
Experiment Summary: Kinetic study on PL
Type: biochemical
Assay Endpoint: type of inhibition against PL (in words)

COc1cc2oc3c(C)c(OC)c(CC=C(C)C)c(O)c3c(=O)c2c(CC=C(C)C)c1OC; mixed inhibitors
COc1c(O)cc2oc3cc(O)c(CCC(C)C)c(O)c3c(=O)c2c1CCC(C)C [Compound 9, tetrahydro-α-mangostin]; mixed inhibitors
COc1cc2oc3cc(OC)c(OC)c(CC=C(C)C)c3c(=O)c2c(O)c1CC=C(C)C; mixed inhibitors
